- STUDY TARGET: T1, recombinant human ErbB3 monomeric protein (cleaved rhErbB3) (human, UniProt P21860 20-643, limits assumed)
- T1 construct: Monomer made by protease cleavage of the Fc fusion; also called Monomeric ErbB3
- TEST DETAILS: SPR Biacore 37 C; supernatant antibody captured on anti-human Fc, cleaved rhErbB3 injected
- Method: The analyses were performed at 37° C. using PBS (Invitrogen, Catalog No. 14040-133) containing 0.05% surfactant P20 (Biacore, Catalog No. BR-1000-54) as running buffer. The antibodies were captured in individual flow cells at a flow rate of 60 l/minute. […] The dissociation phase was monitored for up to 1200 seconds. […] Kinetic parameters were determined using the kinetic function of the BIAevaluation software (Biacore) with double reference subtraction. […]
PROPERTY NAME: koff (s⁻¹)
Give bare numbers, in s⁻¹.

Items follow; give koff for each.
1. Sh24C05-23 (antibody, human IgG1, kappa, V domains shown, Humanized, human IgG1/kappa) VH: QVQLVESGGGVVQPGRSLRLSCAASGFTFSDYAMSWVRQAPGKGLEWVATISDGGTYTYYPDNVKGRFTISRDNSKNTLYLQMSSLRAEDTAVYYCAREWGDYDGFDYWGQGTLVTVSS VL: DIQMTQSPSSLSASVGDRVTITCRASQEISGYLSWFQQKPGKAPKSLIYAASTLDSGVPSRFSGSGSGTDFTLTISSLQPEDFATYYCLQYDSYPYTFGQGTKLEIKR
2. Sh24C05-33 (antibody, human IgG1, kappa, V domains shown, Humanized, human IgG1/kappa) VH: EVQLVESGGGLVKPGGSLRLSCAASGFTFSDYAMSWVRQAPGKGLEWVSTISDGGTYTYYPDNVKGRFTISRDNAKNSLYLQMNSLRAEDTAVYYCAREWGDYDGFDYWGQGTLVTVSS VL: DIQMTQSPSSLSASVGDRVTITCRASQEISGYLSWYQQKPGKAPKLLIYAASTLDSGVPSRFSGSGSGTDFTFTISSLQPEDIATYYCLQYDSYPYTFGQGTKLEIKR
3. Sh24C05-37 (antibody, human IgG1, kappa, V domains shown, Humanized, human IgG1/kappa) VH: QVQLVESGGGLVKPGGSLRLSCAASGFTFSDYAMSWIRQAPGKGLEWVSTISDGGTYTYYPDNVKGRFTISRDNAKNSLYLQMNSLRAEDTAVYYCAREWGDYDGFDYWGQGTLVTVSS VL: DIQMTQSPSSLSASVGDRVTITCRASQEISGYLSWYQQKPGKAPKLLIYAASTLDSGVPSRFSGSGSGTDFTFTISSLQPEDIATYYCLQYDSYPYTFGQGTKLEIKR
4. Sh24C05-46 (antibody, human IgG1, kappa, V domains shown, Humanized, human IgG1/kappa) VH: EVQLLESGGGLVQPGGSLRLSCAASGFTFSDYAMSWVRQAPGKGLEWVSTISDGGTYTYYPDNVKGRFTISRDNSKNTLYLQMNSLRAEDTAVYYCAREWGDYDGFDYWGQGTLVTVSS VL: DIQMTQSPSSLSASVGDRVTITCRASQEISGYLSWYQQKPGKAPKLLIYAASTLDSGVPSRFSGSGSGTDFTLTISSLQPEDFATYYCLQYDSYPYTFGQGTKLEIKR
5. Sh24C05-47 (antibody, human IgG1, kappa, V domains shown, Humanized, human IgG1/kappa) VH: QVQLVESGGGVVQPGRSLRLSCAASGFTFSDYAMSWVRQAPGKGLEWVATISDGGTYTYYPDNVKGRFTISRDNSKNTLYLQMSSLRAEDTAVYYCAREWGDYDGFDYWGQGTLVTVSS VL: DIQMTQSPSSLSASVGDRVTITCRASQEISGYLSWYQQKPGKAPKLLIYAASTLDSGVPSRFSGSGSGTDFTLTISSLQPEDFATYYCLQYDSYPYTFGQGTKLEIKR

1. 0.000721
2. 0.00433
3. 0.002
4. 0.0044
5. 0.00441
